Source listed as patent US20230134571A1.

Study Target: HIV Env of isolate 0260.v5.c36 (clade A) (HIV)
Procedure Text: cell-based or functional assay
Result Type: IC50 (µg/ml) with constrains (µg/mL)
Field format: number, assumed µg/mL, no unit text.

In: Look at this binder and give its reported IC50 (µg/ml) with constrains. ePGDM9 (antibody, V domains shown) VH: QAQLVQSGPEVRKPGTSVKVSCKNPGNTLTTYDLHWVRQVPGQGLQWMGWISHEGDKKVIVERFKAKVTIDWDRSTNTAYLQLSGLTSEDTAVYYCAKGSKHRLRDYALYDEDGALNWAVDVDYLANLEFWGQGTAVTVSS VL: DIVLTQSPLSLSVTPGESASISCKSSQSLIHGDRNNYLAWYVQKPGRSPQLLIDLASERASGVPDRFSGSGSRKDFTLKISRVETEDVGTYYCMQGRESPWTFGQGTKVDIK
Out: 0.018
